assayed-target: full-length H5 A/Vietnam/1203/2004 HA expressed on 293T cells (influenza A virus A/Vietnam/1203/2004 (H5N1))
test: cell-based or functional assay
quantity-name: IC50 of pseudo virus neutralization H5N1 VN/04

Form: binder = S29 (antibody, V domains shown) VH: EVQLVESGGGLVQPGGSLRLSCAASGFTISDYWIHWVRQAPGKGLEWVASIWPSGGYTYYADSVKGRFTISADTSKNTAYLQMNSLRAEDTAVYYCARFNWIVGHYMDYWGQGTLVTVSS VL: DIQMTQSPSSLSASVGDRVTITCRASQDVFGGVAWYQQKPGKAPKLLIYWSSWLYSGVPSRFSGSGSGTDFTLTISSLQPEDFATYYCQQYYDGPITFGQGTKVEIKR ; IC50 of pseudo virus neutralization H5N1 VN/04 = > 200 µg/mL

Form: binder = P48 (antibody, V domains shown) VH: EVQLVESGGGLVQPGGSLRLSCAASGFTINSWGIHWVRQAPGKGLEWVAGIGPSWGYTSYADSVKGRFTISADTSKNTAYLQMNSLRAEDTAVYYCARFGDGDFDLMDYWGQGTLVTVSS VL: DIQMTQSPSSLSASVGDRVTITCRASQDVWSYVAWYQQKPGKAPKLLISYTSYLYSGVPSRFSGSGSGTDFTLTISSLQPEDFATYYCQQYFNWPITFGQGTKVEIKR ; IC50 of pseudo virus neutralization H5N1 VN/04 = > 200 µg/mL

Form: binder = P38 (antibody, V domains shown) VH: EVQLVESGGGLVQPGGSLRLSCAASGFTINDGGIHWVRQAPGKGLEWVAFIGPYGGSTFYADSVKGRFTISADTSKNTAYLQMNSLRAEDTAVYYCAGFIGDYSSYHGVMDYWGQGTLVTVSS VL: DIQMTQSPSSLSASVGDRVTITCRASQDVWGYVAWYQQKPGKAPKLLISWPGGLYSGVPSRFSGSGSGTDFTLTISSLQPEDFATYYCQQYSSFPLTFGQGTKVEIKR ; IC50 of pseudo virus neutralization H5N1 VN/04 = > 200 µg/mL
